Experiment: Plasma PK of ixazomib given with lenalidomide–dexamethasone, phase 1 study in East Asian patients with RRMM (LC/MS/MS, non-compartmental analysis)
Format: in vivo, human
Protocol conditions: human, plasma, po, cycle 1 day 1; Overall; geometric mean (% CV); 4.0 mg oral + lenalidomide–dexamethasone; read-out: AUC0–168
Quantity name: AUC(0-t) (ng·h/mL)
Give bare numbers, in ng·h/mL.

Sample CC(C)C[C@H](NC(=O)CNC(=O)c1cc(Cl)ccc1Cl)B(O)O — what was its AUC(0-t)? 776

====

Experiment: Plasma PK of ixazomib given with lenalidomide–dexamethasone, phase 1 study in East Asian patients with RRMM (LC/MS/MS, non-compartmental analysis)
Format: in vivo, human
Protocol conditions: human, plasma, po, cycle 1 day 15; Other; geometric mean (% CV); 4.0 mg oral + lenalidomide–dexamethasone; read-out: AUC0–168
Method: Plasma PK parameters were calculated for patients in the safety population following administration of ixazomib on cycle 1 day 1 and/or cycle 1 day 15 provided sufficient concentration–time data were available, the patient had received the protocol-specified ixazomib dosing regimen during cycle 1, and no excluded concomitant medications were received during the PK sampling period. […]
Quantity name: AUC(0-t) (ng·h/mL)
Answers are plain numbers, in ng·h/mL.

# lookup: AUC(0-t) of CC(C)C[C@H](NC(=O)CNC(=O)c1cc(Cl)ccc1Cl)B(O)O 1530

====

Experiment: Plasma PK of ixazomib given with lenalidomide–dexamethasone, phase 1 study in East Asian patients with RRMM (LC/MS/MS, non-compartmental analysis)
Assay type: in vivo, human
Protocol conditions: human, plasma, po, cycle 1 day 15; Chinese; geometric mean (% CV); 4.0 mg oral + lenalidomide–dexamethasone; read-out: AUC0–168
Quantity name: AUC(0-t) (µg·h/mL)
Answers are plain numbers, in µg·h/mL.

Fill in: AUC(0-t) of CC(C)C[C@H](NC(=O)CNC(=O)c1cc(Cl)ccc1Cl)B(O)O [ixazomib] is ___ 1.75

====

Experiment: Plasma PK of ixazomib given with lenalidomide–dexamethasone, phase 1 study in East Asian patients with RRMM (LC/MS/MS, non-compartmental analysis)
Type: in vivo, human
Protocol conditions: human, plasma, po, cycle 1 day 1; Korean; geometric mean (% CV); 4.0 mg oral + lenalidomide–dexamethasone; read-out: AUC0–168
Method: Plasma PK parameters were calculated for patients in the safety population following administration of ixazomib on cycle 1 day 1 and/or cycle 1 day 15 provided sufficient concentration–time data were available, the patient had received the protocol-specified ixazomib dosing regimen during cycle 1, and no excluded concomitant medications were received during the PK sampling period. […]
Quantity name: AUC(0-t) (ng·h/mL)
Numbers only, in ng·h/mL.

GET /values?readout=AUC(0-t)&item= CC(C)C[C@H](NC(=O)CNC(=O)c1cc(Cl)ccc1Cl)B(O)O [ixazomib] 630

====

Experiment: Plasma PK of ixazomib given with lenalidomide–dexamethasone, phase 1 study in East Asian patients with RRMM (LC/MS/MS, non-compartmental analysis)
Type: in vivo, human
Protocol conditions: human, plasma, po, cycle 1 day 1; Overall; median (range); 4.0 mg oral + lenalidomide–dexamethasone; read-out: T max
Quantity name: Tmax (h)
Give bare numbers, in h.

Given CC(C)C[C@H](NC(=O)CNC(=O)c1cc(Cl)ccc1Cl)B(O)O , state its recorded Tmax. 1.5

====

Experiment: Plasma PK of ixazomib given with lenalidomide–dexamethasone, phase 1 study in East Asian patients with RRMM (LC/MS/MS, non-compartmental analysis)
Format: in vivo, human
Protocol conditions: human, plasma, po, cycle 1 day 15; Korean; geometric mean (% CV); 4.0 mg oral + lenalidomide–dexamethasone; read-out: AUC0–168
Quantity name: AUC(0-t) (ng·h/mL)
Numbers only, in ng·h/mL.

GET /values?readout=AUC(0-t)&item= CC(C)C[C@H](NC(=O)CNC(=O)c1cc(Cl)ccc1Cl)B(O)O 1450
